Test: Pharmacokinetics after 3 mg/kg IV administration, plasma
Format: in vivo, CD1 mice
Details: CD1, mouse, plasma, iv, 3 mg/kg, individual mice, read-out: C0
Description: Protocol for pharmacokinetic and tissue distribution studies. The pharmacokinetics of the compounds was studied in CD1 mice after intravenous (IV) and oral gavage (PO) administration. Mouse PK studies was conducted at 3 mg/kg (IV) and 8 mg/kg (PO). […] Pharmacokinetic parameters will be calculated using established non-compartmental methods. […]
Test readout: C0 (ng/mL)
Report the figure in ng/mL without appending any unit label.

Exercise: Field request: C0 | item: "COc1cc2c(cc1OCCCCCCC(=O)O)C[C@@H](C(C)C)n1cc(C(=O)O)c(=O)cc1-2"
Key: 2570

* * *

Test: Liver distribution after 8 mg/kg oral dose (liver vs plasma)
Assay type: in vivo, CD1 mice
Settings: CD1, mouse, liver/plasma, oral, 8 mg/kg, 0.5 h, individual animals, read-out: Ratio (liver/plasma)
Test readout: Kp at 0.5 h
Write the number on its own, no unit after it.

Exercise: Field request: Kp at 0.5 h | item: COc1cc2c(cc1OCCCCCCC(=O)O)C[C@@H](C(C)C)n1cc(C(=O)O)c(=O)cc1-2 [Example 6]
Key: 38.9

* * *

Assay: Pharmacokinetics after 8 mg/kg oral (PO) administration, plasma
Assay type: in vivo, CD1 mice
Conditions: CD1, mouse, plasma, oral, 8 mg/kg, 8 mg/kg oral, 0.25 h, individual animals; read-out: Plasma concentration
Test readout: concentration at 0.25 h (ng/mL)
Report the figure in ng/mL without appending any unit label.

Exercise: Field request: concentration at 0.25 h | item: "COc1cc2c(cc1OCCCCCCC(=O)O)C[C@@H](C(C)C)n1cc(C(=O)O)c(=O)cc1-2"
Key: 18.4

* * *

Test: Pharmacokinetics after 3 mg/kg IV administration, plasma
Assay type: in vivo, CD1 mice
Conditions: CD1, mouse, plasma, intravenous, 3 mg/kg, 0.25 h, mean, read-out: Mean plasma concentration
Test readout: concentration at 0.25 h
Don't forget the unit after the number, please.

Exercise: Field request: concentration at 0.25 h | item: COc1cc2c(cc1OCCCCCCC(=O)O)C[C@@H](C(C)C)n1cc(C(=O)O)c(=O)cc1-2 [Example 6]
Key: 86 ng/mL

* * *

Test: Liver distribution after 8 mg/kg oral dose (liver vs plasma)
Type: in vivo, CD1 mice
Conditions: CD1, mouse, liver/plasma, oral, 8 mg/kg, 1 h, mean, read-out: Ratio (liver/plasma) Mean
Test readout: Kp at 1 h
Write the number on its own, no unit after it.

Exercise: Field request: Kp at 1 h | item: "COc1cc2c(cc1OCCCCCCC(=O)O)C[C@@H](C(C)C)n1cc(C(=O)O)c(=O)cc1-2"
Key: 48.9

* * *

Assay: Pharmacokinetics after 3 mg/kg IV administration, plasma
Assay type: in vivo, CD1 mice
Conditions: CD1, mouse, plasma, iv, 3 mg/kg, mean, read-out: C0
Test readout: C0 (ng/mL)
Report the figure in ng/mL without appending any unit label.

Exercise: Field request: C0 | item: COc1cc2c(cc1OCCCCCCC(=O)O)C[C@@H](C(C)C)n1cc(C(=O)O)c(=O)cc1-2 [Example 6]
Key: 2570

* * *

Test: Pharmacokinetics after 3 mg/kg IV administration, plasma
Type: in vivo, CD1 mice
Details: CD1, mouse, plasma, iv, 3 mg/kg, mean, read-out: Vss —obs
Test readout: Vd (L/kg)
Report the figure in L/kg without appending any unit label.

Exercise: Field request: Vd | item: "COc1cc2c(cc1OCCCCCCC(=O)O)C[C@@H](C(C)C)n1cc(C(=O)O)c(=O)cc1-2"
Key: 3.26
